Data provenance is ChEMBL document CHEMBL2346600.

experimental protocol: Volume of distribution in rat
Type: ADME, organism-based
run conditions: in vivo
readout kind: Vd

• Cc1cc(S(=O)(=O)C2CC2)cc(=O)n1[C@@H](CC1CCCCO1)C(=O)Nc1ncc(Cl)s1 (stereo partly specified) = 2.4 L/kg

---

test target: Hexokinase-4 (Homo sapiens)
experimental protocol: Activation of glucokinase (unknown origin) relative to control
Entries are grouped by %max into these classes: small value = under 40%, mid value = from 40% up to 60%, large value = 60% and over

• Cc1cc(S(=O)(=O)C2CCCC2)cc(=O)n1[C@@H](CC1CCCCC1)C(=O)Nc1nccs1 = large value
• Cc1cccc(S(=O)(=O)N2CCN([C@@H](CC3CCCCC3)C(=O)Nc3nccs3)C(=O)C2)c1 = small value
• O=C(Nc1nccs1)[C@H](CC1CCCCC1)n1c(=O)[nH]c2ccccc2c1=O = mid value
• CCS(=O)(=O)c1ccc2c(=O)n([C@@H](CC3CCCCO3)C(=O)Nc3ncc(F)s3)cnc2c1 (stereo partly specified) = mid value
• Cc1cc(S(=O)(=O)C2CCCC2)cc(=O)n1[C@@H](CC1CCCCO1)C(=O)Nc1ncc(Cl)s1 (stereo partly specified) = mid value
• O=C(Nc1nccs1)[C@H](CC1CCCCC1)N1CCN(S(=O)(=O)C2CCCC2)CC1=O = small value
• O=C(Nc1ncc(F)s1)[C@H](CC1CCCCC1)n1cnc2cc(S(=O)(=O)C3CCCC3)ccc2c1=O = large value
• CCCCC(C(=O)Nc1nccs1)n1c(C)cc(S(=O)(=O)C2CCCC2)cc1=O (racemic) = mid value
• Cc1cc(S(C)(=O)=O)cc(=O)n1[C@@H](CC1CCCCC1)C(=O)Nc1nccs1 = large value
• Cc1cc(S(=O)(=O)C2CCCC2)cc(=O)n1C(CC(C)C)C(=O)Nc1nccs1 (racemic) = large value
• O=C(Nc1nccs1)[C@H](CC1CCCCC1)N1CCN(S(=O)(=O)c2cc(F)cc(F)c2)CC1=O = mid value
• O=C(NC1CC1)c1ccc2c(=O)n(C(CC3CCCCO3)C(=O)Nc3ncc(Cl)s3)cnc2c1 (racemic) = small value
• O=C(NC1CC1)c1ccc2c(=O)n(C(CC3CCCCC3)C(=O)Nc3ncc(Cl)s3)cnc2c1 (racemic) = mid value
• Cc1cc(S(=O)(=O)C2CCCC2)cc(=O)n1[C@@H](CC1CCCCO1)C(=O)Nc1ncc(F)s1 (stereo partly specified) = large value
• CS(=O)(=O)c1ccc2c(=O)n(C(CC3CCCCC3)C(=O)Nc3ncc(Cl)s3)c(=O)[nH]c2c1 (racemic) = small value
• CS(=O)(=O)N1CCN(C(CC2CCCCC2)C(=O)Nc2nccs2)C(=O)C1 (racemic) = large value
• CS(=O)(=O)c1ccc2c(=O)n([C@@H](CC3CCCCC3)C(=O)Nc3nccs3)c(=O)[nH]c2c1 = small value
• CC(C)CC(C(=O)Nc1nccs1)n1c(=O)[nH]c2ccccc2c1=O (racemic) = large value
• O=C(Nc1nccs1)[C@H](CC1CCCCC1)n1c(=O)[nH]c2ccc(F)cc2c1=O = large value
• CS(=O)(=O)N1CCN([C@@H](CC2CCCCO2)C(=O)Nc2ncc(Cl)s2)C(=O)C1 (stereo partly specified) = small value
• Cc1cc(S(=O)(=O)C2CCCC2)cc(=O)n1C(CC1CCCCO1)C(=O)Nc1nccs1 (racemic) = large value
• O=C(Nc1nccs1)[C@H](CC1CCCC1)n1cnc2cc(S(=O)(=O)C3CC3)ccc2c1=O = mid value
• O=C(Nc1nccs1)[C@H](CC1CCCCC1)n1cnc2ccc(F)cc2c1=O = large value
• Cc1cc(S(=O)(=O)C2CCCC2)cc(=O)n1C(CC1CCCC1)C(=O)Nc1nccs1 (racemic) = large value
• CC(C)C[C@@H](C(=O)Nc1nccs1)n1c(=O)[nH]c2ccccc2c1=O = small value
• CCS(=O)(=O)c1cc(C)n([C@@H](CC2CCCCC2)C(=O)Nc2nccs2)c(=O)c1 = large value
• O=C(Nc1nccs1)[C@H](CC1CCCCC1)N1CCN(S(=O)(=O)Cc2ccccc2)CC1=O = small value
• O=C(Nc1nccs1)C(CC1CCCCC1)n1cnc2ccc(Cl)cc2c1=O (racemic) = mid value
• O=C(Nc1ncc(Cl)s1)[C@H](CC1CCCCO1)N1CCN(S(=O)(=O)C2CC2)CC1=O (stereo partly specified) = small value
